target: Protein-glutamine gamma-glutamyltransferase (Homo sapiens, UniProt P21980); assay: Inhibition of human transglutaminase 2 using ZGBC as a substrate after 30 to 60 mins by fluorometric assay
Sequence (P21980 whole entry): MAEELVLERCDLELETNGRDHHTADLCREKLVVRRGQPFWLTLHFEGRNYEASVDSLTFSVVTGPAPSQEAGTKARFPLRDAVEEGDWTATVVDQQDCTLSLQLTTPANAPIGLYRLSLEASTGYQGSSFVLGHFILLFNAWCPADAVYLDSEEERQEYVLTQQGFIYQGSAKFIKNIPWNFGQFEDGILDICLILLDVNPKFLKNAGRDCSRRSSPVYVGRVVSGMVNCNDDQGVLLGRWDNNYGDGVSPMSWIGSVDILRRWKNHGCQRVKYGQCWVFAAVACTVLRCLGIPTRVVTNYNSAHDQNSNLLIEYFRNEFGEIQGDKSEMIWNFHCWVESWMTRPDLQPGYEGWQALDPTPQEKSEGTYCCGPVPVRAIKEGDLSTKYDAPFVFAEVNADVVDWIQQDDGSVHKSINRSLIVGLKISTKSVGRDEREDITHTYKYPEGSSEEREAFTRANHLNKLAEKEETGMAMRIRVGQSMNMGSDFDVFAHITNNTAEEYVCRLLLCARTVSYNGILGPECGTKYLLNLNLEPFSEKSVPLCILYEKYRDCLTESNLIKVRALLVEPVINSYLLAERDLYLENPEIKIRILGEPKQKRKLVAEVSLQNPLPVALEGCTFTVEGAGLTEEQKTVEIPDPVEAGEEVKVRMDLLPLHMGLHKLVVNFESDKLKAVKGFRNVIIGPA
MEASUREMENT_KIND: IC50 (nM)
Supply the numeric figure in nM, leaving out any unit text.

In [3]: df
Out[3]:
                                  structure  measurement
0   Cc1ccc2c(c1)/C(=C\C(=O)c1cccnc1)C(=O)N2         4500
1           CC(=O)/C=C1/C(=O)Nc2ccc(Cl)cc21         3700
2    CC(=O)/C=C1/C(=O)Nc2cc(OC(F)(F)F)ccc21         2600
3  COc1ccc(C(=O)/C=C2/C(=O)Nc3cccc(Cl)c32)cc1         1300
4      O=C1Nc2cccc(Cl)c2/C1=C\C(=O)c1ccncc1         1000

Any idea what its IC50 is? The molecule is O=C(/C=C1/C(=O)N(Cc2ccccc2)c2cccc(Cl)c21)c1cccnc1 360

Any idea what its IC50 is? The molecule is CC(C)CN1C(=O)/C(=C/C(=O)c2cccnc2)c2c(Cl)cccc21 4100

Any idea what its IC50 is? The molecule is O=C1Nc2c(Cl)cccc2/C1=C\C(=O)c1cccnc1 1600

Any idea what its IC50 is? The molecule is COc1cccc(C(=O)/C=C2/C(=O)Nc3cccc(Cl)c32)c1 1100

Any idea what its IC50 is? The molecule is O=C(/C=C1/C(=O)N(CC2CCCCC2)c2cccc(Cl)c21)c1cccnc1 6700

Any idea what its IC50 is? The molecule is CC(=O)/C=C1/C(=O)Nc2cc(F)ccc21 20000

Any idea what its IC50 is? The molecule is CCOC(=O)CN1C(=O)/C(=C/C(=O)c2cccnc2)c2c(Cl)cccc21 2500
